- System: anti-CR2 SCR1-2 monoclonal antibody 171
- Method summary: MBP-CR2 SCR1-2-171 mAb ELISA
- Type: binding
- Experimental parameters: mutant MBP-CR2 SCR1-2 relative to wild-type; plate-bound 171 mAb
Attribute measured: % 171 mAb Binding (%)
Please state the figure in %; there is no need to write the unit.

Returns the measured % 171 mAb Binding for the input molecule. Input: R13A: single-site mutant of recombinant MBP-CR2 SCR1-2 (protein, left off: large carriers; small tags and cut ends) ISCGSPPPILNGAISYYSTPIAVGTVIRYSCSGTFRLIGEKSLLCITKDKVDGTWDKPAPKCEYFNKYSSCPEPIVPGGYKIRGSTPYRHGDSVTFACKTNFSMNGNKSVWCQANNMWGPTRLPTCVSVFPLE 15.6

Returns the measured % 171 mAb Binding for the input molecule. Input: T34A: single-site mutant of recombinant MBP-CR2 SCR1-2 (protein, left off: large carriers; small tags and cut ends) ISCGSPPPILNGRISYYSTPIAVGTVIRYSCSGAFRLIGEKSLLCITKDKVDGTWDKPAPKCEYFNKYSSCPEPIVPGGYKIRGSTPYRHGDSVTFACKTNFSMNGNKSVWCQANNMWGPTRLPTCVSVFPLE 12.4

Returns the measured % 171 mAb Binding for the input molecule. Input: M117A: single-site mutant of recombinant MBP-CR2 SCR1-2 (protein, left off: large carriers; small tags and cut ends) ISCGSPPPILNGRISYYSTPIAVGTVIRYSCSGTFRLIGEKSLLCITKDKVDGTWDKPAPKCEYFNKYSSCPEPIVPGGYKIRGSTPYRHGDSVTFACKTNFSMNGNKSVWCQANNAWGPTRLPTCVSVFPLE 97.2

Returns the measured % 171 mAb Binding for the input molecule. Input: K57A: single-site mutant of recombinant MBP-CR2 SCR1-2 (protein, left off: large carriers; small tags and cut ends) ISCGSPPPILNGRISYYSTPIAVGTVIRYSCSGTFRLIGEKSLLCITKDKVDGTWDAPAPKCEYFNKYSSCPEPIVPGGYKIRGSTPYRHGDSVTFACKTNFSMNGNKSVWCQANNMWGPTRLPTCVSVFPLE 91.9

Returns the measured % 171 mAb Binding for the input molecule. Input: Y68A: single-site mutant of recombinant MBP-CR2 SCR1-2 (protein, left off: large carriers; small tags and cut ends) ISCGSPPPILNGRISYYSTPIAVGTVIRYSCSGTFRLIGEKSLLCITKDKVDGTWDKPAPKCEYFNKASSCPEPIVPGGYKIRGSTPYRHGDSVTFACKTNFSMNGNKSVWCQANNMWGPTRLPTCVSVFPLE 92.1

Returns the measured % 171 mAb Binding for the input molecule. Input: T86A: single-site mutant of recombinant MBP-CR2 SCR1-2 (protein, left off: large carriers; small tags and cut ends) ISCGSPPPILNGRISYYSTPIAVGTVIRYSCSGTFRLIGEKSLLCITKDKVDGTWDKPAPKCEYFNKYSSCPEPIVPGGYKIRGSAPYRHGDSVTFACKTNFSMNGNKSVWCQANNMWGPTRLPTCVSVFPLE 89.6
